Tested on: SR
Assay: Growth inhibition of human SR cells at 10 uM incubated for 48 hrs by sulforhodamine B assay relative to control
Format: functional
Conditions: read-out: GI
PARAMETER: inhibition of growth at 10 µM (%)
Give bare numbers, in %.

COc1cc2nc(-c3ccc(Cl)cc3)cc(OCCN3CCC(O)CC3)c2cc1OC    3
COc1cc2nc(-c3cccs3)cc(OCCCN3CCC(O)CC3)c2cc1OC    20
COc1cc2nc(-c3ccc(Cl)cc3)cc(OCCCN3CCOCC3)c2cc1OC    62

Hello, I would appreciate it if you could give inhibition of growth at 10 µM for each entry below.
1. COc1cc2nc(-c3ccc(Cl)cc3)cc(OCCCN3CCC(O)CC3)c2cc1OC
2. COc1cc2nc(-c3ccc(Cl)cc3)cc(OCCN3CCCC3)c2cc1OC
3. COc1cc2nc(-c3ccc(C(F)(F)F)cc3)cc(OCCN3CCOCC3)c2cc1OC
4. COc1cc2nc(-c3ccc(C(F)(F)F)cc3)cc(OCCN3CCC(O)CC3)c2cc1OC
5. COc1cc2nc(-c3ccsc3)cc(OCCCN3CCC(O)CC3)c2cc1OC

Ans.
1: 62; 2: 3; 3: 13; 4: 13; 5: 32

* * *

Test system: SR
Assay: Growth inhibition of human SR cells incubated for 48 hrs by sulforhodamine B assay
Format: functional
Label y when GI50 is strictly below 300 nM; otherwise label n.

COc1cc2nc(-c3ccc(C(F)(F)F)cc3)cc(OCCCN3CCOCC3)c2cc1OC    y
COc1cc2nc(-c3ccc(Cl)cc3)cc(OCCCN3CCC(O)CC3)c2cc1OC    n
COc1cc2nc(-c3ccc(Cl)cc3)cc(OCCCN3CCOCC3)c2cc1OC    n
COc1cc2nc(-c3ccc(Cl)cc3)cc(OCCCN3CCCCC3)c2cc1OC    n
COc1cc2nc(-c3ccc(Cl)cc3)cc(OCCCN3CCCC3)c2cc1OC    y

Qu. Lab note: confirm whether the reported GI50 for this compound is below 300 nM, equality not counting. compound: `COc1cc2nc(-c3ccc(C(F)(F)F)cc3)cc(OCCCN3CCCCC3)c2cc1OC`
Ans. y

Qu. Lab note: confirm whether the reported GI50 for this compound is below 300 nM, equality not counting. compound: `COc1cc2nc(-c3ccc(C(F)(F)F)cc3)cc(OCCCN3CCCC3)c2cc1OC`
Ans. y

Qu. Lab note: confirm whether the reported GI50 for this compound is below 300 nM, equality not counting. compound: `COc1cc2nc(-c3ccc(C(F)(F)F)cc3)cc(OCCCN3CCC(O)CC3)c2cc1OC`
Ans. y

* * *

Test system: SN12C
Assay: Growth inhibition of human SN12C cells at 10 uM incubated for 48 hrs by sulforhodamine B assay relative to control
Type: functional
Conditions: read-out: GI
PARAMETER: inhibition of growth at 10 µM (%)
Answers are plain numbers, in %.

Known inhibition of growth at 10 µM results, listed for orientation:
COc1cc2nc(-c3ccc(Cl)cc3)cc(OCCN3CCCC3)c2cc1OC    3
COc1cc2nc(-c3ccc(C(F)(F)F)cc3)cc(OCCN3CCCCC3)c2cc1OC    13
COc1cc2nc(-c3ccco3)cc(OCCCN3CCC(O)CC3)c2cc1OC    46

Hello, I would appreciate it if you could give inhibition of growth at 10 µM for each entry below.
1. COc1cc2nc(-c3ccc(Cl)cc3)cc(OCCCN3CCOCC3)c2cc1OC
2. COc1cc2nc(-c3ccc(Cl)cc3)cc(OCCN3CCC(O)CC3)c2cc1OC
3. COc1cc2nc(-c3ccc(C(F)(F)F)cc3)cc(OCCN3CCC(O)CC3)c2cc1OC
4. COc1cc2nc(-c3ccc(Cl)cc3)cc(OCCCN3CCCCC3)c2cc1OC
5. COc1cc2nc(-c3ccc(Cl)cc3)cc(OCCCN3CCCC3)c2cc1OC
6. COc1cc2nc(-c3ccsc3)cc(OCCCN3CCC(O)CC3)c2cc1OC
7. COc1cc2nc(-c3cccs3)cc(OCCCN3CCC(O)CC3)c2cc1OC

Ans.
1: 62; 2: 3; 3: 13; 4: 62; 5: 62; 6: 32; 7: 20
